Below, each entry is listed alongside its reported pKd.
- system_tested: T1, IFN-αG (human, UniProt P01569 24-189)
- T1 construct: Recombinant, HEK293; also called IFN-α5
- procedure_details: ProteOn SPR, cell supernatant;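 further: each binding measurement used just a single antigen concentration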
pKd: −log10 of the molar value.
measurement_name: pKd

- IFWM3381 (antibody, IgG1, V domains shown, mAb; IgG1/kappa said of the parent and of selected mAbs; also called IFWB3116) VH: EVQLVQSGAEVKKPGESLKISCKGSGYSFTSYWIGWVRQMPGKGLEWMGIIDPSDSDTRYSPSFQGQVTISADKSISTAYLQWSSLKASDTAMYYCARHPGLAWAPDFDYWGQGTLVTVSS VL: DIQMTQSPSSLSASVGDRVTITCRASQSIGSFLNWYQQKPGKAPKLLIYFASSLQSGVPSRFSGSGSGTDFTLTISSLQPEDFATYYCQQSYSIPITFGQGTKVEIK: 10.28
- IFWM3378 (antibody, IgG1, V domains shown, mAb; IgG1/kappa said of the parent and of selected mAbs; also called IFWB3113) VH: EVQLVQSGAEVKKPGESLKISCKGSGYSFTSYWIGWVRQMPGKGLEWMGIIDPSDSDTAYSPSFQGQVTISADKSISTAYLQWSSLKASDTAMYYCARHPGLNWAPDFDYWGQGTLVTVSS VL: DIQMTQSPSSLSASVGDRVTITCRASQSIANNDLNWYQQKPGKAPKLLIHWASSLQSGVPSRFSGSGSGTDFTLTISSLQPEDFATYYCQQDYDWPLTFGQGTKVEIK: 9.82
- IFWM3399 (antibody, IgG1, V domains shown, mAb; IgG1/kappa said of the parent and of selected mAbs; also called IFWB3134) VH: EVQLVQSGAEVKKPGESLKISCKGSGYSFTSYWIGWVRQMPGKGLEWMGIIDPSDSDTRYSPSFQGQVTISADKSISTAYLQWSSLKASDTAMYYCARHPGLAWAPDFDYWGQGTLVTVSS VL: DIQMTQSPSSLSASVGDRVTITCRASQSIDGALNWYQQKPGKAPKLLIYFASSLQSGVPSRFSGSGSGTDFTLTISSLQPEDFATYYCQQAYDFPLTFGQGTKVEIK: 10.52
- IFWM3371 (antibody, IgG1, V domains shown, mAb; IgG1/kappa said of the parent and of selected mAbs; also called IFWB3106) VH: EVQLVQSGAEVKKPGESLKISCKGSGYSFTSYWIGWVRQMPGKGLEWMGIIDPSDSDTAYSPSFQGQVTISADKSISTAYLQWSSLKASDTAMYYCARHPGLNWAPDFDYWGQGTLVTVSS VL: DIQMTQSPSSLSASVGDRVTITCRASQSIANTNLNWYQQKPGKAPKLLIHWASSLQSGVPSRFSGSGSGTDFTLTISSLQPEDFATYYCQQWYDNPLTFGQGTKVEIK: 10.30
- IFWM3382 (antibody, IgG1, V domains shown, mAb; IgG1/kappa said of the parent and of selected mAbs; also called IFWB3117) VH: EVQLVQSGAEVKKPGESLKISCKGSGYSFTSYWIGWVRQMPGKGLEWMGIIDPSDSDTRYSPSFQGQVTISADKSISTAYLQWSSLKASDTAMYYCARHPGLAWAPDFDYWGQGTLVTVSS VL: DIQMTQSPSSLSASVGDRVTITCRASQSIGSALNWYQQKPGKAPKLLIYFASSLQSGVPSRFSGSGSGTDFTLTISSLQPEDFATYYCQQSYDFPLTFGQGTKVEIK: 10.52
- IFWM3409 (antibody, IgG1, V domains shown, mAb; IgG1/kappa said of the parent and of selected mAbs; also called IFWB3144) VH: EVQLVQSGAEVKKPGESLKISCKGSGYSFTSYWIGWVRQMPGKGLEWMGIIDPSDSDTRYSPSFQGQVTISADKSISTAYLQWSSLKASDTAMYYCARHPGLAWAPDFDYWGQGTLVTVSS VL: DIQMTQSPSSLSASVGDRVTITCRASQSIDNSYLNWYQQKPGKAPKLLIYGASSLQSGVPSRFSGSGSGTDFTLTISSLQPEDFATYYCQQGWDWPLTFGQGTKVEIK: 11.30
- IFWM3380 (antibody, IgG1, V domains shown, mAb; IgG1/kappa said of the parent and of selected mAbs; also called IFWB3115) VH: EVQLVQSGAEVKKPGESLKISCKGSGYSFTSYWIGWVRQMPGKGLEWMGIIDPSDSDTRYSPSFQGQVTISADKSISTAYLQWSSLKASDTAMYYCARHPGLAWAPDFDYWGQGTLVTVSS VL: DIQMTQSPSSLSASVGDRVTITCRASQSINRFLNWYQQKPGKAPKLLIYAASSLQSGVPSRFSGSGSGTDFTLTISSLQPEDFATYYCQQAIDLPFTFGQGTKVEIK: 10.15
- IFWM3395 (antibody, IgG1, V domains shown, mAb; IgG1/kappa said of the parent and of selected mAbs; also called IFWB3130) VH: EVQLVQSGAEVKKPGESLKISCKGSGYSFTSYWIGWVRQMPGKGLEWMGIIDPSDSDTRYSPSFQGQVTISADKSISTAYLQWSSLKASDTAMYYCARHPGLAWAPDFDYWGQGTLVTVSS VL: DIQMTQSPSSLSASVGDRVTITCRASQSISKFLNWYQQKPGKAPKLLIYFASSLQSGVPSRFSGSGSGTDFTLTISSLQPEDFATYYCQQSYDFPITFGQGTKVEIK: 10.20
- IFWM3391 (antibody, IgG1, V domains shown, mAb; IgG1/kappa said of the parent and of selected mAbs; also called IFWB3126) VH: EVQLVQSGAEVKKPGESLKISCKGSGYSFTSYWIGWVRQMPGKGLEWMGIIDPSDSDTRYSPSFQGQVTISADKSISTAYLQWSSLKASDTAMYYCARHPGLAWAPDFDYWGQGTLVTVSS VL: DIQMTQSPSSLSASVGDRVTITCRASQSINNFLNWYQQKPGKAPKLLIYFASSLQSGVPSRFSGSGSGTDFTLTISSLQPEDFATYYCQQSFNLPITFGQGTKVEIK: 10.36
- IFWM3420 (antibody, IgG1, V domains shown, mAb; IgG1/kappa said of the parent and of selected mAbs; also called IFWB3155) VH: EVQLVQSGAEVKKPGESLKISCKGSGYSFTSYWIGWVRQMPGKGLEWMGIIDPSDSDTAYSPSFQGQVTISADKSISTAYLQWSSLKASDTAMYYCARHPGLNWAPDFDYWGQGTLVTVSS VL: DIQMTQSPSSLSASVGDRVTITCRASQSIAGFLNWYQQKPGKAPKLLIYYASSLQSGVPSRFSGSGSGTDFTLTISSLQPEDFATYYCQQSYSIPITFGQGTKVEIK: 10.43
